Test system: Streptococcus pyogenes
Procedure text: Antibacterial activity against erythromycin-susceptible Streptococcus pyogenes by CLSI M7-A7 broth microdilution method
Format: functional
Endpoint: MIC

{"Compound": "C[C@@H](O)[C@H]1C(=O)N2C(C(=O)O)=C(SCCNC=N)C[C@H]12 [IMIPENEM ANHYDROUS]", "Assay target": "Streptococcus pyogenes", "MIC": "≤ 0.015 mg/L"}

Entry `CCCCCCCCCC(=O)N[C@@H](Cc1c[nH]c2ccccc12)C(=O)N[C@H](CC(N)=O)C(=O)N[C@@H](CC(=O)O)C(=O)N[C@@H]1C(=O)NCC(=O)N[C@@H](CCCN)C(=O)N[C@@H](CC(=O)O)C(=O)N[C@H](C)C(=O)N[C@@H](CC(=O)O)C(=O)NCC(=O)N[C@H](CO)C(=O)N[C@@H]([C@H](C)CC(=O)O)C(=O)N[C@@H](CC(=O)c2ccccc2N)C(=O)O[C@@H]1C` needs its MIC filled in; supply it.
≤ 0.03 mg/L

Entry `CC1(C)S[C@@H]2[C@H](NC(=O)Cc3ccccc3)C(=O)N2[C@H]1C(=O)O` needs its MIC filled in; supply it.
≤ 0.12 mg/L

Entry `CO/N=C(\C(=O)N[C@@H]1C(=O)N2C(C(=O)O)=C(CSc3nc(=O)c(O)nn3C)CS[C@H]12)c1csc(N)n1` needs its MIC filled in; supply it.
≤ 0.015 mg/L

Entry `CC(C)(O/N=C(\C(=O)N[C@@H]1C(=O)N2C(C(=O)[O-])=C(C[n+]3ccccc3)CS[C@H]12)c1csc(N)n1)C(=O)O` needs its MIC filled in; supply it.
≤ 1 mg/L

* * *

Reported values of Activity for individual entries
System: Haemophilus influenzae
Procedure text: Antibacterial activity against beta lactamase-negative Haemophilus influenzae assessed as susceptible isolates by CLSI M7-A7 broth microdilution method
Assay type: functional
Express it in %; write the number only.

Entry CC1(C)S[C@@H]2[C@H](NC(=O)[C@H](N)c3ccccc3)C(=O)N2[C@H]1C(=O)O [AMPICILLIN] needs its Activity filled in; supply it.
99

Entry CC(C)(O/N=C(\C(=O)N[C@@H]1C(=O)N2C(C(=O)[O-])=C(C[n+]3ccccc3)CS[C@H]12)c1csc(N)n1)C(=O)O [CEFTAZIDIME] needs its Activity filled in; supply it.
98.5

Entry CCN1CCN(C(=O)N[C@@H](C(=O)N[C@@H]2C(=O)N3[C@@H]2SC(C)(C)[C@@H]3C(=O)O)c2ccccc2)C(=O)C1=O [PIPERACILLIN] needs its Activity filled in; supply it.
100

Entry CO/N=C(\C(=O)N[C@@H]1C(=O)N2C(C(=O)O)=C(CSc3nc(=O)c(O)nn3C)CS[C@H]12)c1csc(N)n1 [CEFTRIAXONE] needs its Activity filled in; supply it.
100

Entry C[C@@H](O)[C@H]1C(=O)N2C(C(=O)O)=C(SCCNC=N)C[C@H]12 [IMIPENEM ANHYDROUS] needs its Activity filled in; supply it.
100

Entry C[C@H]1COc2c(N3CCN(C)CC3)c(F)cc3c(=O)c(C(=O)O)cn1c23.C[C@H]1COc2c(N3CCN(C)CC3)c(F)cc3c(=O)c(C(=O)O)cn1c23.O [LEVOFLOXACIN] needs its Activity filled in; supply it.
100

* * *

Reported values of Activity for individual entries
System: Streptococcus pneumoniae
Procedure text: Antibacterial activity against penicillin-susceptible Streptococcus pneumoniae assessed as susceptible isolates by CLSI M7-A7 broth microdilution method
Type: functional
Express it in %; write the number only.

Known results for molecules:
{"Molecule": "C[C@@H](O)[C@H]1C(=O)N2C(C(=O)O)=C(SCCNC=N)C[C@H]12 [IMIPENEM ANHYDROUS]", "Activity [%]": 96.5}
{"Molecule": "CN[C@H](CC(C)C)C(=O)N[C@H]1C(=O)N[C@@H](CC(N)=O)C(=O)N[C@H]2C(=O)N[C@H]3C(=O)N[C@H](C(=O)N[C@H](C(=O)O)c4cc(O)cc(O)c4-c4cc3ccc4O)[C@H](O)c3ccc(c(Cl)c3)Oc3cc2cc(c3O[C@@H]2O[C@H](CO)[C@@H](O)[C@H](O)[C@H]2O[C@H]2C[C@](C)(N)[C@H](O)[C@H](C)O2)Oc2ccc(cc2Cl)[C@H]1O [VANCOMYCIN]", "Activity [%]": 100}
{"Molecule": "CC(=O)NC[C@H]1CN(c2ccc(N3CCOCC3)c(F)c2)C(=O)O1 [LINEZOLID]", "Activity [%]": 100}

Entry CO/N=C(\C(=O)N[C@@H]1C(=O)N2C(C(=O)O)=C(CSc3nc(=O)c(O)nn3C)CS[C@H]12)c1csc(N)n1 [CEFTRIAXONE] needs its Activity filled in; supply it.
100

Entry CC[C@H]1OC(=O)[C@H](C)[C@@H](O[C@H]2C[C@@](C)(OC)[C@@H](O)[C@H](C)O2)[C@H](C)[C@@H](O[C@@H]2O[C@H](C)C[C@H](N(C)C)[C@H]2O)[C@](C)(O)C[C@@H](C)C(=O)[C@H](C)[C@@H](O)[C@]1(C)O [ERYTHROMYCIN] needs its Activity filled in; supply it.
89.1

Entry C[C@H]1COc2c(N3CCN(C)CC3)c(F)cc3c(=O)c(C(=O)O)cn1c23.C[C@H]1COc2c(N3CCN(C)CC3)c(F)cc3c(=O)c(C(=O)O)cn1c23.O [LEVOFLOXACIN] needs its Activity filled in; supply it.
98.5

* * *

Reported values of MIC90 for individual entries
System: Streptococcus pneumoniae
Procedure text: Antibacterial activity against penicillin-susceptible Streptococcus pneumoniae by CLSI M7-A7 broth microdilution method
Format: functional
Express it in µg/mL; write the number only.

{"Smiles": "CN[C@H](CC(C)C)C(=O)N[C@H]1C(=O)N[C@@H](CC(N)=O)C(=O)N[C@H]2C(=O)N[C@H]3C(=O)N[C@H](C(=O)N[C@H](C(=O)O)c4cc(O)cc(O)c4-c4cc3ccc4O)[C@H](O)c3ccc(c(Cl)c3)Oc3cc2cc(c3O[C@@H]2O[C@H](CO)[C@@H](O)[C@H](O)[C@H]2O[C@H]2C[C@](C)(N)[C@H](O)[C@H](C)O2)Oc2ccc(cc2Cl)[C@H]1O", "Assay target": "Streptococcus pneumoniae", "Endpoint": "MIC90", "Unit of measure": "µg/mL", "Quantitative result": 0.5}

Entry `CO/N=C(\C(=O)N[C@@H]1C(=O)N2C(C(=O)O)=C(CSc3nc(=O)c(O)nn3C)CS[C@H]12)c1csc(N)n1` needs its MIC90 filled in; supply it.
0.06

Entry `CCCCCCCCCC(=O)N[C@@H](Cc1c[nH]c2ccccc12)C(=O)N[C@H](CC(N)=O)C(=O)N[C@@H](CC(=O)O)C(=O)N[C@@H]1C(=O)NCC(=O)N[C@@H](CCCN)C(=O)N[C@@H](CC(=O)O)C(=O)N[C@H](C)C(=O)N[C@@H](CC(=O)O)C(=O)NCC(=O)N[C@H](CO)C(=O)N[C@@H]([C@H](C)CC(=O)O)C(=O)N[C@@H](CC(=O)c2ccccc2N)C(=O)O[C@@H]1C` needs its MIC90 filled in; supply it.
0.12

Entry `C[C@H]1COc2c(N3CCN(C)CC3)c(F)cc3c(=O)c(C(=O)O)cn1c23.C[C@H]1COc2c(N3CCN(C)CC3)c(F)cc3c(=O)c(C(=O)O)cn1c23.O` needs its MIC90 filled in; supply it.
1

Entry `CC[C@H]1OC(=O)[C@H](C)[C@@H](O[C@H]2C[C@@](C)(OC)[C@@H](O)[C@H](C)O2)[C@H](C)[C@@H](O[C@@H]2O[C@H](C)C[C@H](N(C)C)[C@H]2O)[C@](C)(O)C[C@@H](C)C(=O)[C@H](C)[C@@H](O)[C@]1(C)O` needs its MIC90 filled in; supply it.
0.5

Entry `CCO/N=C(\C(=O)N[C@@H]1C(=O)N2C(C(=O)[O-])=C(Sc3nc(-c4cc[n+](C)cc4)cs3)CS[C@H]12)c1nsc(NP(=O)(O)O)n1` needs its MIC90 filled in; supply it.
0.015

* * *

Reported values of MIC50 for individual entries
Test system: Escherichia coli
Procedure text: Antibacterial activity against ceftazidime-nonsusceptible Escherichia coli by CLSI M7-A7 broth microdilution method
Assay type: functional

Known results for compounds:
{"Compound": "C[C@@H](O)[C@H]1C(=O)N2C(C(=O)O)=C(SCCNC=N)C[C@H]12 [IMIPENEM ANHYDROUS]", "Result": "0.25 µg/mL"}
{"Compound": "CC1(C)S[C@@H]2[C@H](NC(=O)[C@H](N)c3ccccc3)C(=O)N2[C@H]1C(=O)O [AMPICILLIN]", "Result": "> 32 µg/mL"}
{"Compound": "CC(C)(O/N=C(\\C(=O)N[C@@H]1C(=O)N2C(C(=O)[O-])=C(C[n+]3ccccc3)CS[C@H]12)c1csc(N)n1)C(=O)O [CEFTAZIDIME]", "Result": "> 32 µg/mL"}

--- query ---
Give reported MIC50 for C[C@H]1COc2c(N3CCN(C)CC3)c(F)cc3c(=O)c(C(=O)O)cn1c23.C[C@H]1COc2c(N3CCN(C)CC3)c(F)cc3c(=O)c(C(=O)O)cn1c23.O [LEVOFLOXACIN] (Escherichia coli)
> 16 µg/mL
